- Tested on: A549
- assay-explanation: Antiproliferative activity against human A549 cells assessed as inhibition of cell growth
- Assay type: functional, cell-based
endpoint-name: IC50 (nM)

| chemical-structure | IC50 / nM |
| --- | --- |
| CC[C@@]12CC(C(=O)OC)=C3Nc4cc5c(cc4[C@@]34CCN(C[C@H]3O[C@H]31)[C@@H]24)[C@@H]1[C@H](O5)[C@@H](O)[C@@]2(CC)CC(C(=O)OC)=C3Nc4c(cc(O)c(OC)c4OC)[C@@]34CCN1[C@@H]24 | 170 |

[a] COC(=O)C1=CN2CCc3c([nH]c4ccccc34)[C@@H]2C[C@@H]1C1=CO[C@@H]([C@H]2[C@@H]3CCN4CC[C@@]5(C(=C3C(=O)OC)Nc3ccccc35)[C@@H]24)C[C@@H]1C
[b] C/C=C1/CN2CC[C@]34C(=C(CN5c6ccccc6[C@@]67CCN8CCC[C@]9(CC[C@]56[C@H](C(=O)OC)C9)[C@H]87)[C@H]1C[C@H]23)Nc1ccccc14
[c] C/C=C1\CN(C)[C@H]2Cc3c([nH]c4ccccc34)[C@H](c3c(O)ccc4c5c([nH]c34)[C@]3(C(=O)OC)C[C@@H]4C[C@H](CC)[C@@H]3N(CC5)C4)C[C@H]1[C@]2(CO)C(=O)OC
[d] C=C1[C@H]2C[C@@H]3N(CC[C@@]34c3cccc5c3N(C[C@H]3[C@H]6C[C@@H]7N(CC[C@@]78c7ccccc7N[C@@]538)C[C@H]6CC)[C@@H]14)C[C@H]2CC
hey, can you rank those compounds up there by IC50? biggest number first please When ranking, write the labels in the order the request describes.
d, b, c, a
(d: 3800 nM, b: 1300 nM, c: 170 nM, a: 3.09 nM)

====

- Test system: KB
- assay-explanation: Antiproliferative activity against drug-sensitive human KB cells assessed as inhibition of cell growth
- Assay type: functional, cell-based
endpoint-name: IC50 (µM)

| chemical-structure | endpoint-name | number |
| --- | --- | --- |
| C/C=C1/CN2[C@H]3Cc4c([nH]c5ccc(O)c([C@H]6Cn7c8c(c9ccccc97)CCN7CC=C[C@@]6(CC)[C@H]87)c45)[C@@H]2C[C@@H]1[C@]3(CO)C(=O)OC | IC50 | 0.57 |
| CC[C@H]1[C@@H]2CCN3CC[C@@]4(C5=C2C[C@@]2(CN5c5ccccc54)C4=Nc5ccccc5[C@]45CCN4CC[C@H]2[C@H](CC)[C@@H]45)[C@@H]13 | IC50 | 0.57 |

====

- Tested on: K562
- assay-explanation: Antiproliferative activity against human K562 cells assessed as inhibition of cell growth by MTT assay
- Assay type: functional, cell-based
endpoint-name: IC50 (µM)

| chemical-structure | IC50, µM |
| --- | --- |
| CO[C@@]1(C(=O)c2c[nH]c3ccccc23)N=C(c2c[nH]c3cc(Br)ccc23)C(=O)N1 | 24.2 |
| CO[C@@]1(C(=O)c2c[nH]c3ccccc23)N=C(c2c[nH]c3ccccc23)C(=O)N1 | 24.2 |
| CO[C@@]1(C(=O)c2c[nH]c3cc(O)ccc23)N=C(c2c[nH]c3ccccc23)C(=O)N1 | 24.2 |

[P] CO[C@@]1(C(=O)c2c[nH]c3cc(O)ccc23)N=C(c2c[nH]c3cc(Br)ccc23)C(=O)N1
[Q] CC(=O)C[C@@H]1c2c([nH]c3ccccc23)[C@H](c2c[nH]c3ccccc23)[C@H]1C(C)=O
Hey, which is lower on measured IC50, P or Q ? Give the label of your selection.
Q

====

- Tested on: MCF7
- assay-explanation: Antiproliferative activity against human MCF7 cells assessed as inhibition of cell growth incubated for 48 hrs by MTT assay
- Assay type: functional, cell-based
- condition-info: MCF7, 48 h
pIC50: −log10 of the molar value.
endpoint-name: pIC50

Example compounds with recorded pIC50:
| compound | number |
| --- | --- |
| CC[C@]12C=CCN3CCc4c(n(c5cc(OC)ccc45)[C@@H](c4cc5c(cc4OC)NC4=C(C(=O)OC)C[C@]6(CC)CCCN7CC[C@@]45[C@@H]76)C1)[C@@H]32 | 5.49 |
| CC[C@]12C=CCN3CCc4c(n(c5ccccc45)[C@@H](c4cc5c(cc4OC)NC4=C(C(=O)OC)C[C@]6([C@@H](C)OC(C)=O)CCCN7CC[C@@]45[C@@H]76)C1)[C@@H]32 | 5.49 |
| C/C=C1/CN(C)[C@@]2(C)Cc3c([nH]c4ccccc34)[C@H](c3c(OC)ccc4c3NC3[C@@]4(O)CCN4C[C@H]5C[C@H](CC)[C@H]4[C@@]3(C(=O)OC)C5)C[C@H]1[C@]2(COC(C)=O)C(=O)OC (some centres not stated) | 5.54 |
| C/C=C1/CN2COC[C@]3(C(=O)OC)[C@@H]1C[C@@H](c1c(OC)ccc4c1NC1[C@@]4(O)CCN4C[C@H]5C[C@H](CC)[C@H]4[C@@]1(C(=O)OC)C5)c1[nH]c4ccccc4c1C[C@]23C (some centres not stated) | 5.33 |
| CC[C@@]12CC(C(=O)OC)=C3Nc4cc5c(cc4[C@@]34CCN(C[C@@H]3O[C@@H]31)[C@@H]24)[C@@H]1[C@H](O5)[C@@H](O)[C@@]2(CC)CC(C(=O)OC)=C3Nc4c(cc(O)c(OC)c4OC)[C@@]34CCN1[C@@H]24 | 5.85 |

[1] CCC12CCCN3CC[C@@]4(OC)c5cc([C@@H]6C[C@@]7(CC)CCCN8CCc9c(n6c6ccccc96)[C@H]87)c(O)cc5N(CCC1)C324 (some centres not stated)
[2] CC[C@@]12CC(C(=O)OC)=C3Nc4cc5c(cc4[C@@]34CCN(C[C@H]3O[C@H]31)[C@@H]24)[C@@H]1[C@H](O5)[C@@H](O)[C@@]2(CC)CC(C(=O)OC)=C3Nc4c(cc(O)c(OC)c4OC)[C@@]34CC[N+]1([O-])[C@@H]24 (some centres not stated)
Lab log: flag the item ( 1 or 2 ) with the smaller pIC50 figure. Indicate which entry you chose by stating its label.
2
(2: 5.85, 1: 6.30)

====

- Test system: MCF7
- assay-explanation: Antiproliferative activity against human MCF7 cells assessed as inhibition of cell growth incubated for 72 hrs by SRB assay
- Assay type: functional, cell-based
- condition-info: MCF7, 72 h
Each record here notes measured IC50.

Before answering, review these 3 worked examples.
| chemical-structure | result |
| --- | --- |
| CC[C@H]1CN(C)[C@H]2Cc3c([nH]c4ccccc34)[C@H](c3c(OC)ccc4c5c([nH]c34)[C@]3(C(=O)OC)C[C@@H]4C[C@H](CC)[C@@H]3N(CC5)C4)C[C@H]1[C@@H]2C(=O)OC | 10.9 µM |
| CC[C@@H]1CN(C)[C@H]2Cc3c([nH]c4ccccc34)[C@H](c3cc4c5c([nH]c4cc3OC)[C@@]3(C(=O)OC)C[C@H]4C[C@@H](CC)[C@@H]3N(CC5)[C@H]4CC(C)=O)C[C@H]1[C@@H]2C(=O)OC | < 10 µM |
| CC[C@@H]1CN(C)[C@H]2Cc3c([nH]c4ccccc34)[C@H](c3ccc4[nH]c5c(c4c3)CCN3C[C@@H]4C[C@@H](CC)[C@H]3[C@@H]5C4)C[C@H]1[C@@H]2C(=O)OC | < 10 µM |

API: the following record is the query input.
Give reported IC50 for C/C=C1\CN(C)[C@H]2Cc3c([nH]c4ccccc34)[C@H](c3c(OC)ccc4c5c([nH]c34)[C@]3(C(=O)OC)C[C@@H]4C[C@H](CC)[C@@H]3N(CC5)[C@@H]4CC(C)=O)C[C@H]1[C@@H]2C(=O)OC (MCF7)
< 10 µM

====

- Test system: HCT-116
- assay-explanation: Antiproliferative activity against human HCT-116 cells assessed as inhibition of cell growth
- Format: functional, cell-based
pIC50: −log10 of the molar value.
endpoint-name: pIC50

[I] C/C=C1/CN2CC[C@]34C(=C(CN5c6ccccc6[C@@]67CCN8CCC[C@]9(CC[C@]56[C@H](C(=O)OC)C9)[C@H]87)[C@H]1C[C@H]23)Nc1ccccc14
[II] C=C1[C@H]2C[C@@H]3N(CC[C@@]34c3cccc5c3N(C[C@H]3[C@H]6C[C@@H]7N(CC[C@@]78c7ccccc7N[C@@]538)C[C@H]6CC)[C@@H]14)C[C@H]2CC
Which has the smaller recorded pIC50, I or II ? Answer format: the label of the selected item.
II
(II: 5.42, I: 5.89)

====

- System: A549
- assay-explanation: Antiproliferative activity against human A549 cells assessed as inhibition of cell growth incubated for 72 hrs by MTT assay
- Format: functional, cell-based
- condition-info: A549, 72 h, pooled result: one value given for 8 cell lines, strains, targets or settings
endpoint-name: IC50 (µM)
Write the number in µM without appending the unit.

Give IC50 for c1ccc2c(C3(c4c[nH]c5ccccc45)CCCCC3)c[nH]c2c1
18.7
